The following molecules are shown together with reported pIC50 values.
Tested on: KO-52 cells
Experiment Description: Proliferation assay, spheroid-like growth, KO-52 (MLL wildtype control cell line)
Type: cell-based, human
Assay Setup: Homo sapiens, 192 h, KO-52 control cells, 8 days, confluence as measure of spheroid size; read-out: spheroid assay_OneTime KO-52 IC50
Conceptually, pIC50 converts a concentration in mol/L into minus its log10.

Prompt: Notebook: pull reported pIC50 for KO-52 cells, entry CC(C)[C@H]([C@H]1C[C@H](N2CC3(CCO3)C2)C1)N1CC2(CCN(c3ncnnc3Oc3ccc(F)cc3-c3cncnc3C3CC3)C2)C1 (single isomer, unassigned)
Response: 5.18

Prompt: Notebook: pull reported pIC50 for KO-52 cells, entry CC(C)[C@H]([C@H]1C[C@@H](NC(=O)C(C)(C)C)C1)N1CC2(CCN(c3ncnnc3Oc3ccc(F)cc3-c3cncnc3C3CC3)C2)C1 (single isomer, unassigned)
Response: 5.09

The origin of these recorded values is patent US20240417405A1.
